Target: T1, Axl protein (human, UniProt P30530 26-451)
T1 construct: extracellular domain; also called human Axl; hAxl
T1 sequence (looked up): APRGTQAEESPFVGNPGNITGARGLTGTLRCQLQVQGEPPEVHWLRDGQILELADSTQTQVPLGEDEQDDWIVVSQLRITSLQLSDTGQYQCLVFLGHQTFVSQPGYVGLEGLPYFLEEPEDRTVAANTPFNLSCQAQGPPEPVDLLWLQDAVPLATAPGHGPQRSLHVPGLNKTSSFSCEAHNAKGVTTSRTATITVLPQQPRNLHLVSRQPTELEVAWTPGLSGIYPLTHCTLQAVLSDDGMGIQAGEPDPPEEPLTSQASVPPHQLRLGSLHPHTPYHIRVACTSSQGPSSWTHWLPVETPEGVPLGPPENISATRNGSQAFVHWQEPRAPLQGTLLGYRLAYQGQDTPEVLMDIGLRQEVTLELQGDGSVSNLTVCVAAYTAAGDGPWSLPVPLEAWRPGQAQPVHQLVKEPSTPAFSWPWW
Experiment: ELISA, 1:3 dilution, pH 6.0 over pH 7.4
Reported values of Affinity ELISA CPE mutant ratio (1:3, pH 6.0/7.4) for individual entries

[[record]]
binder = "LC-P095K (antibody, V domains shown) VH: EVQLVQSGAEVKKPGATVKISCKVSGYSFTGHTMNWIRQPPGKGLEWIGLIKPSNGGTSYNQKFKGRVTISADKSISTAYLQWSSLKASDTAMYYCAHGHYESYFAMDYWGQGTLVTVSS VL: DIQMTQSPSSLSASVGDRVTITCKASQDVSSAVAWYQQKPGQAPRLLIYWASTRHTGVPSRFSGSGSGTEFTLTISSLQPDDFATYYCQEHFSTKLTFGQGTKVEIK"
result = "3.84 ratio"

[[record]]
binder = "LC-A034N (antibody, V domains shown) VH: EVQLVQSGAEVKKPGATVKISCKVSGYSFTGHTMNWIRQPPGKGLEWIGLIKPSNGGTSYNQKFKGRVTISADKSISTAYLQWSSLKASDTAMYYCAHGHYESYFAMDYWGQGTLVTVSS VL: DIQMTQSPSSLSASVGDRVTITCKASQDVSSAVNWYQQKPGQAPRLLIYWASTRHTGVPSRFSGSGSGTEFTLTISSLQPDDFATYYCQEHFSTPLTFGQGTKVEIK"
result = "2.63 ratio"

[[record]]
binder = "LC-A032M (antibody, V domains shown) VH: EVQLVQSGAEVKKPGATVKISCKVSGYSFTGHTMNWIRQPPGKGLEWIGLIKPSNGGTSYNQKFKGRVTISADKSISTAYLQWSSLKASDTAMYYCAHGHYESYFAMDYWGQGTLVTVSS VL: DIQMTQSPSSLSASVGDRVTITCKASQDVSSMVAWYQQKPGQAPRLLIYWASTRHTGVPSRFSGSGSGTEFTLTISSLQPDDFATYYCQEHFSTPLTFGQGTKVEIK"
result = "4.76 ratio"

[[record]]
binder = "LC-A051P (antibody, V domains shown) VH: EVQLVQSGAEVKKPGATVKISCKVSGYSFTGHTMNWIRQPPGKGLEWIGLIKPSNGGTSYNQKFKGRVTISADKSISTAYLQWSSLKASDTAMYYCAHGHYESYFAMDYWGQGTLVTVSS VL: DIQMTQSPSSLSASVGDRVTITCKASQDVSSAVAWYQQKPGQAPRLLIYWPSTRHTGVPSRFSGSGSGTEFTLTISSLQPDDFATYYCQEHFSTPLTFGQGTKVEIK"
result = "1.92 ratio"

[[record]]
binder = "LC-F092D (antibody, V domains shown) VH: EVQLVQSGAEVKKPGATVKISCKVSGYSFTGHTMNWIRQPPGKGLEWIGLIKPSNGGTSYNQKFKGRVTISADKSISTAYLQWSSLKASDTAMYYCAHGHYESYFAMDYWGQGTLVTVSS VL: DIQMTQSPSSLSASVGDRVTITCKASQDVSSAVAWYQQKPGQAPRLLIYWASTRHTGVPSRFSGSGSGTEFTLTISSLQPDDFATYYCQEHDSTPLTFGQGTKVEIK"
result = "2.97 ratio"


Query: Which Affinity ELISA CPE mutant ratio (1:3, pH 6.0/7.4) value is on record for LC-H091C (antibody, V domains shown) VH: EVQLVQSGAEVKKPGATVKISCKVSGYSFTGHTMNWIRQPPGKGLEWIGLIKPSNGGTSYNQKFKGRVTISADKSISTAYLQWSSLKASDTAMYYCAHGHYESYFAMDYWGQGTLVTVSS VL: DIQMTQSPSSLSASVGDRVTITCKASQDVSSAVAWYQQKPGQAPRLLIYWASTRHTGVPSRFSGSGSGTEFTLTISSLQPDDFATYYCQECFSTPLTFGQGTKVEIK ?
Result: 4 ratio

Query: What does the record list as Affinity ELISA CPE mutant ratio (1:3, pH 6.0/7.4) for LC-F092S (antibody, V domains shown) VH: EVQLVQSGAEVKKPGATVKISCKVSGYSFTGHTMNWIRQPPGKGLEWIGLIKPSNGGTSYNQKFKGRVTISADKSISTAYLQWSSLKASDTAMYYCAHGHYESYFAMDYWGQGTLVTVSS VL: DIQMTQSPSSLSASVGDRVTITCKASQDVSSAVAWYQQKPGQAPRLLIYWASTRHTGVPSRFSGSGSGTEFTLTISSLQPDDFATYYCQEHSSTPLTFGQGTKVEIK ?
Result: 3.18 ratio

Query: Entry under review: LC-A034D (antibody, V domains shown) VH: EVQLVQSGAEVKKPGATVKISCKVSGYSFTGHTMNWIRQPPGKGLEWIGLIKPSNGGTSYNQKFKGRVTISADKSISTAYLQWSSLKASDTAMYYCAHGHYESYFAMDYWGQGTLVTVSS VL: DIQMTQSPSSLSASVGDRVTITCKASQDVSSAVDWYQQKPGQAPRLLIYWASTRHTGVPSRFSGSGSGTEFTLTISSLQPDDFATYYCQEHFSTPLTFGQGTKVEIK . Reported Affinity ELISA CPE mutant ratio (1:3, pH 6.0/7.4)?
Result: 3 ratio

Query: Sample LC-H091T (antibody, V domains shown) VH: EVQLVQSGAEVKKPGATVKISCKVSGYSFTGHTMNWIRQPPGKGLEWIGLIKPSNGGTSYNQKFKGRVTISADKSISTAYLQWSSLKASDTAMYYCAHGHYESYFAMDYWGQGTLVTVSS VL: DIQMTQSPSSLSASVGDRVTITCKASQDVSSAVAWYQQKPGQAPRLLIYWASTRHTGVPSRFSGSGSGTEFTLTISSLQPDDFATYYCQETFSTPLTFGQGTKVEIK — what was its Affinity ELISA CPE mutant ratio (1:3, pH 6.0/7.4)?
Result: 3.78 ratio

Query: Could you tell me which Affinity ELISA CPE mutant ratio (1:3, pH 6.0/7.4) is on file for LC-L096G (antibody, V domains shown) VH: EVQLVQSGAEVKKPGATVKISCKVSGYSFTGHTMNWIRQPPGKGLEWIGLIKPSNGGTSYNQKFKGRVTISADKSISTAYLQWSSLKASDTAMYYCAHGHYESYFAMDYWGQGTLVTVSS VL: DIQMTQSPSSLSASVGDRVTITCKASQDVSSAVAWYQQKPGQAPRLLIYWASTRHTGVPSRFSGSGSGTEFTLTISSLQPDDFATYYCQEHFSTPGTFGQGTKVEIK ?
Result: 2.17 ratio
